Reported IC50 values for the following compounds.
molecular target: Human IL-17AF (Homo sapiens, UniProt Q16552+Q96PD4); experiment: IL-17AF ELISA (competitive ELISA, IL-17AF/IL-17Ra receptor-ligand binding); details: human IL-17AF coated plate, human IL-17Ra, read-out: IC50, inhibitory activity of compounds on human IL-17AF
Metric name: IC50

- Compound: "Cc1[nH]nc2c1-c1cc(F)c(NC(=O)[C@@H](NC(=O)c3ccnn3CC3CC3)C(C3CC3)C3CC3)cc1COCC2"
  Assay value: "100 to 500 nM"
- Compound: "Cc1[nH]nc2c1-c1cnc(NC(=O)[C@@H](NC(=O)c3conc3C3CC3)C(C3CC3)C3CC3)cc1COCC2"
  Assay value: "100 to 500 nM"
- Compound: "Cc1[nH]nc2c1-c1cc(F)c(NC(=O)[C@@H](NC(=O)c3ccnn3C(C)C)C(C3CC3)C3CC3)cc1CN(C1CC1)C(=O)C2"
  Assay value: "≤ 100 nM"
- Compound: "CCn1nccc1C(=O)N[C@H](C(=O)Nc1cc2c(cc1F)-c1c(n[nH]c1C)CC(C)OC2)C(C1CC1)C1CC1 (single isomer, unassigned) [compound 119b]"
  Assay value: "100 to 500 nM"
- Compound: "Cc1[nH]nc2c1-c1cc(F)c(NC(=O)[C@@H](NC(=O)c3ccnn3C(C)C)C(C3CC3)C3CC3)cc1CN(CC(F)(F)F)C(=O)C2"
  Assay value: "100 to 500 nM"
- Compound: "CCn1nccc1C(=O)N[C@H](C(=O)Nc1cc2c(cc1F)-c1c(n[nH]c1C)CC(=O)N(CCOC)C2)C(C1CC1)C1CC1"
  Assay value: "≤ 100 nM"

* * *

Molecular target: Human IL-17A (Homo sapiens, UniProt Q16552)
Sequence (Q16552 20-155 limits assumed): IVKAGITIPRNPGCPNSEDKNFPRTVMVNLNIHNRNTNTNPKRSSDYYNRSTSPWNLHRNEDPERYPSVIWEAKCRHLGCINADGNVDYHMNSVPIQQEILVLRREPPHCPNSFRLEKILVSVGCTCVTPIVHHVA
Assay: Inhibition of human IL-17A protein-induced GROα/CXCL1 production in HT-29 cells
Format: cell-based
Set-up: purchased R&D 317-ILB; host or cells: added exogenously to HT-29 cells
Conditions: 30 ng/mL human IL-17A protein, 48 h, GROα in supernatant by ELISA kit, read-out: Inhibitory IC50 of compounds on HT-29 cell GROα/CXCL1
pIC50: −log10 of the molar value.
Metric name: pIC50

- Compound: "CCn1nccc1C(=O)N[C@H](C(=O)Nc1cc2c(cn1)-c1c(n[nH]c1C)CCN(C1CC1)C2)C(C1CC1)C1CC1 [compound 217]"
  Assay value: "≥ 7.00"
- Compound: "[2H]C([2H])([2H])C([2H])(n1nccc1C(=O)N[C@H](C(=O)Nc1ccc2c(c1)COCCc1n[nH]c(C)c1-2)C(C1CC1)C1CC1)C([2H])([2H])[2H] [compound 52]"
  Assay value: "≥ 7.00"
- Compound: "Cc1[nH]nc2c1-c1cc(F)c(NC(=O)[C@@H](NC(=O)c3ccnn3CCC(O)C(F)(F)F)C(C3CC3)C3CC3)cc1COCC2 (stereo partly shown) [compound 81]"
  Assay value: "6.30 to 7.00"
- Compound: "Cc1[nH]nc2c1-c1cnc(NC(=O)[C@@H](NC(=O)c3ccnn3C(C)C(F)F)C(C3CC3)C3CC3)cc1COCC2 (single isomer, unassigned) [compound 190b]"
  Assay value: "6.30 to 7.00"
- Compound: "Cc1[nH]nc2c1-c1cc(F)c(NC(=O)[C@@H](NC(=O)c3ccnn3C(C)C)C(C3CC3)C3CC3)cc1CN(CC(F)F)C(C)C2 (mixture of isomers) [compound 178]"
  Assay value: "≥ 7.00"
- Compound: "Cc1[nH]nc2c1-c1cnc(NC(=O)[C@@H](NC(=O)c3ccnn3C(C)C)C(C3CC3)C3CC3)cc1CN(C(C)C)C(=O)C2 [compound 195]"
  Assay value: "≥ 7.00"
- Compound: "Cc1[nH]nc2c1-c1ccc(NC(=O)[C@@H](NC(=O)c3ccnn3C)C(C3CC3)C3CC3)cc1COCC2 [compound 2]"
  Assay value: "6.30 to 7.00"
- Compound: "Cc1[nH]nc2c1-c1cc(F)c(NC(=O)[C@@H](NC(=O)c3ccnn3CCCF)C(C3CC3)C3CC3)cc1COCC2 [compound 86]"
  Assay value: "≥ 7.00"
- Compound: "Cc1[nH]nc2c1-c1cnc(NC(=O)[C@@H](NC(=O)c3ccnn3C(C)C)C(C3CC3)C3CC3)cc1CN(CC(C)(F)F)CC2 [compound 199]"
  Assay value: "≥ 7.00"
- Compound: "C=C(F)C(=O)N[C@H](C(=O)Nc1cc2c(cc1F)-c1c(n[nH]c1C)CCOC2)C(C1CC1)C1CC1 [compound 233]"
  Assay value: "≥ 7.00"
- Compound: "Cc1[nH]nc2c1-c1cc(F)c(NC(=O)[C@@H](NC(=O)c3ccnn3C(C)C)C(C3CC3)C3CC3)cc1CN(CC(F)(F)F)C(=O)C2 [compound 152]"
  Assay value: "≥ 7.00"
- Compound: "Cc1[nH]nc2c1-c1cnc(NC(=O)[C@@H](NC(=O)c3ccnn3C3CC3)C(C3CC3)C3CC3)cc1COCC2 [compound 237]"
  Assay value: "6.30 to 7.00"
- Compound: "Cc1[nH]nc2c1-c1cc(F)c(NC(=O)[C@@H](NC(=O)c3ccnn3C(C)C)C(C3CC3)C3CC3)cc1CN(C1CC(F)(F)C1)CC2 [compound 176]"
  Assay value: "≥ 7.00"

* * *

Reported IC50 values for the following compounds.
biological target: UniProtKB Q16552; experiment: IL-17A enzyme-linked immunosorbent assay (competitive ELISA, IL-17A/IL-17Ra receptor-ligand binding); design: purchased Sino Biological Inc. 12047-H07B; conditions: human IL-17A coated plate, human IL-17Ra, read-out: IC50, inhibitory activity of compounds on human IL-17A
Metric name: IC50

- Compound: "Cc1[nH]nc2c1-c1cnc(NC(=O)[C@@H](NC(=O)c3ccnn3C(C)C)C(C3CC3)C3CC3)cc1CN(CC(C)(F)F)CC2 [compound 199]"
  Assay value: "≤ 50 nM"
- Compound: "COCCCn1nccc1C(=O)N[C@H](C(=O)Nc1cc2c(cc1F)-c1c(n[nH]c1C)CCOC2)C(C1CC1)C1CC1 [compound 58]"
  Assay value: "≤ 50 nM"
- Compound: "Cc1[nH]nc2c1-c1cc(F)c(NC(=O)[C@@H](NC(=O)c3ccnn3CCCF)C(C3CC3)C3CC3)cc1CN(C(C)C(F)(F)F)C(=O)C2 (mixture of isomers) [compound 249]"
  Assay value: "≤ 50 nM"
- Compound: "Cc1[nH]nc2c1-c1cc(F)c(NC(=O)[C@@H](NC(=O)c3ccnn3CCCN3CCOCC3)C(C3CC3)C3CC3)cc1COCC2 [compound 92]"
  Assay value: "≤ 50 nM"
- Compound: "CCn1nccc1C(=O)N[C@H](C(=O)Nc1ccc2c(c1)COCCc1n[nH]c(C)c1-2)C(C1CC1)C1CC1 [compound 3]"
  Assay value: "≤ 50 nM"
- Compound: "Cc1[nH]nc2c1-c1cnc(NC(=O)[C@@H](NC(=O)c3ccnn3CCCF)C(C3CC3)C3CC3)cc1CN(C(C)C(F)(F)F)C(=O)C2 (mixture of isomers) [compound 226]"
  Assay value: "≤ 50 nM"
- Compound: "Cc1[nH]nc2c1-c1cc(F)c(NC(=O)[C@@H](NC(=O)c3ccnn3CC(C)(C)C#N)C(C3CC3)C3CC3)cc1COCC2 [compound 77]"
  Assay value: "50 to 150 nM"
- Compound: "CO[C@@H](C)Cn1nccc1C(=O)N[C@H](C(=O)Nc1cc2c(cc1F)-c1c(n[nH]c1C)CCOC2)C(C1CC1)C1CC1 [compound 78]"
  Assay value: "≤ 50 nM"
- Compound: "CC(=O)N1CCc2n[nH]c(C)c2-c2cnc(NC(=O)[C@@H](NC(=O)c3ccnn3C(C)C)C(C3CC3)C3CC3)cc2C1 [compound 196]"
  Assay value: "≤ 50 nM"
- Compound: "Cc1[nH]nc2c1-c1cc(F)c(NC(=O)[C@@H](NC(=O)c3ccnn3CC(C)(F)F)C(C3CC3)C3CC3)cc1COCC2 [compound 87]"
  Assay value: "≤ 50 nM"
- Compound: "Cc1[nH]nc2c1-c1cnc(NC(=O)[C@@H](NC(=O)/C(F)=C\\C3CC3)C(C3CC3)C3CC3)cc1CN(C1CC1)CC2 [compound 221]"
  Assay value: "≤ 50 nM"
- Compound: "C=C(F)C(=O)N[C@H](C(=O)Nc1cc2c(cn1)-c1c(n[nH]c1C)CCOC2)C(C1CC1)C1CC1 [compound 245]"
  Assay value: "≤ 50 nM"
- Compound: "CCc1nonc1C(=O)N[C@H](C(=O)Nc1cc2c(cc1F)-c1c(n[nH]c1C)CCOC2)C(C1CC1)C1CC1 [compound 21]"
  Assay value: "≤ 50 nM"
